Source listed as paper PMC9917184.

Test system: membrane VEGFR-2
method notes: Membrane VEGFR-2 relative quantification by flow cytometry in cancer cells co-cultured with Jurkat T cells
Format: cell-based, human
assay setup: A549 co-cultured with Jurkat T cells, 100 μM, 24 h, relative to non-treated co-cultures
Binary call on %VEGFR2 (membrane) with cut-off 90%: strictly below means rule met, and equality or higher means rule not met.

# example entries with known answers
OCCc1ccc(CCn2cc(-c3ccc(Br)cc3)nn2)cc1 = rule not met
OCCc1ccc(CCn2cc(-c3cccc(Br)c3)nn2)cc1 = rule met
COc1ccccc1-c1cn(CCc2ccc(CCO)cc2)nn1 = rule not met

Next:
Query: Take the molecule `COc1ccc(C(OCCc2ccc(CCn3cc(-c4ccccc4)nn3)cc2)(c2ccccc2)c2ccc(OC)cc2)cc1` and say whether its %VEGFR2 (membrane) is less than 90%.
Result: rule met
